Tested on: 966289-007-R4-J1-PDC complex spheroid viability
Assay explanation: Anticancer human tumor 966289-007-R4-J1-PDC patient-derived pancreatic adenocarcinoma cell line growth inhibition [RAS]
Applied conditions: second compound 0.1 µM; first compound 0.316 µM; stronger effect = lower value
From the text: RAS pathway inhibitors in Combinations in Complex Spheroids A high-throughput screen of multi-cell type tumor spheroids was designed to identify active combinations of RAS pathway inhibitors and targeted small molecules. Complex spheroids include a stromal component modeled by human endothelial cells (HUVEC) and fibroblasts modeled by human mesenchymal stem cells (MSCs). […] Compounds. […] If the clinical Cmax for an agent had not been determined, the highest concentration tested was 10 microM. […]
Listing of entries alongside the reported viability, T/C.

{"Compound": "CC1(O)CCCC1n1c(=O)c(C(F)F)cc2cnc(NC3CCN(S(C)(=O)=O)CC3)nc21 (stereo not drawn) + C#Cc1c(F)ccc2cc(O)cc(-c3ncc4c(N5CC6CCC(C5)N6)nc(OCC56CCCN5CC(F)C6)nc4c3F)c12", "viability, T/C": "26.7%"}
{"Compound": "Cc1nc(N2CCC3(CC2)COC(C)C3N)c(CO)nc1Sc1ccnc(N)c1Cl (stereo not drawn) + C=CC(=O)N1CCN(c2nc(OCC3CCCN3C)nc3c(F)c(-c4nc(N)cc(C)c4C(F)(F)F)c(Cl)cc23)C(C)C1", "viability, T/C": "107%"}

Moving on to the next compound.
Using the record for CCC(CC)c1cc(NC2CCC(N)C2)n2nccc2n1 (stereo not drawn) + C#Cc1c(F)ccc2cc(O)cc(-c3ncc4c(N5CC6CCC(C5)N6)nc(OCC56CCCN5CC(F)C6)nc4c3F)c12 , state its measured viability, T/C.
106%

====

Test system: 966289-007-R4-J1-PDC complex spheroid viability
Assay explanation: Anticancer human tumor 966289-007-R4-J1-PDC cell line growth inhibition [RAS];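 also: spheroids exposed to agents for one week before readout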;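 as to viability, T/C: percent viability relative to DMSO vehicle control wells as 100%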
Applied conditions: second compound 0.316 µM; first compound 0.1 µM; stronger effect = lower value
Assay metric: viability, T/C (%)
Numeric answer only, unit % assumed.

{"Compound": "C=CC(=O)N1CCN(c2nc(OCC3CCCN3C)nc3c(F)c(-c4nc(N)cc(C)c4C(F)(F)F)c(Cl)cc23)C(C)C1 (stereo not given) + C#Cc1c(F)ccc2cc(O)cc(-c3ncc4c(N5CC6CCC(C5)N6)nc(OCC56CCCN5CC(F)C6)nc4c3F)c12", "viability, T/C (%)": 99.7}

Using the record for NC1c2ccccc2OC12CCN(c1cnc3c(N4CCCc5ncccc54)n[nH]c3n1)CC2 (stereo not given) + C=CC(=O)N1CCN(c2nc(OCC3CCCN3C)nc3c(F)c(-c4nc(N)cc(C)c4C(F)(F)F)c(Cl)cc23)C(C)C1 , state its measured viability, T/C.
91.4

Using the record for Cc1nc(N2CCC3(CC2)COC(C)C3N)c(CO)nc1Sc1ccnc(N)c1Cl (stereo not given) + C=CC(=O)N1CCN(c2nc(OCC3CCCN3C)nc3c(F)c(-c4nc(N)cc(C)c4C(F)(F)F)c(Cl)cc23)C(C)C1 , state its measured viability, T/C.
102

Using the record for CC(C)NCC(C(=O)N1CCN(c2ncnc3c2C(C)CC3O)CC1)c1ccc(Cl)cc1 (stereo not given) + C#Cc1c(F)ccc2cc(O)cc(-c3ncc4c(N5CC6CCC(C5)N6)nc(OCC56CCCN5CC(F)C6)nc4c3F)c12 , state its measured viability, T/C.
103

Using the record for CCN1CCN(Cc2ccc(Nc3ncc(F)c(-c4cc(F)c5nc(C)n(C(C)C)c5c4)n3)nc2)CC1 + C#Cc1c(F)ccc2cc(O)cc(-c3ncc4c(N5CC6CCC(C5)N6)nc(OCC56CCCN5CC(F)C6)nc4c3F)c12 , state its measured viability, T/C.
95.9

Using the record for C=CC(=O)Nc1cc(Nc2nccc(-c3cn(C)c4ccccc34)n2)c(OC)cc1N(C)CCN(C)C + C#Cc1c(F)ccc2cc(O)cc(-c3ncc4c(N5CC6CCC(C5)N6)nc(OCC56CCCN5CC(F)C6)nc4c3F)c12 , state its measured viability, T/C.
105

Using the record for CC(C)n1nc(-c2ccc3oc(N)nc3c2)c2c(N)ncnc21 + C=CC(=O)N1CCN(c2nc(OCC3CCCN3C)nc3c(F)c(-c4nc(N)cc(C)c4C(F)(F)F)c(Cl)cc23)C(C)C1 , state its measured viability, T/C.
24.9

Using the record for CCC(CC)c1cc(NC2CCC(N)C2)n2nccc2n1 (stereo not given) + C#Cc1c(F)ccc2cc(O)cc(-c3ncc4c(N5CC6CCC(C5)N6)nc(OCC56CCCN5CC(F)C6)nc4c3F)c12 , state its measured viability, T/C.
95.1

Using the record for CC(Nc1ccc2c(c1)OCCn1cc(N3C(=O)OCC3C(F)F)nc1-2)C(N)=O (stereo not given) + C#Cc1c(F)ccc2cc(O)cc(-c3ncc4c(N5CC6CCC(C5)N6)nc(OCC56CCCN5CC(F)C6)nc4c3F)c12 , state its measured viability, T/C.
102

Using the record for CC1(O)CCCC1n1c(=O)c(C(F)F)cc2cnc(NC3CCN(S(C)(=O)=O)CC3)nc21 (stereo not given) + C#Cc1c(F)ccc2cc(O)cc(-c3ncc4c(N5CC6CCC(C5)N6)nc(OCC56CCCN5CC(F)C6)nc4c3F)c12 , state its measured viability, T/C.
71.8

====

Listing of entries alongside the reported viability, T/C.
Test system: 966289-007-R4-J1-PDC complex spheroid viability
Assay explanation: Anticancer human tumor 966289-007-R4-J1-PDC cell line growth inhibition [RAS];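 also: spheroids exposed to agents for one week before readout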;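 as to viability, T/C: percent viability relative to DMSO vehicle control wells as 100%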
Applied conditions: second compound 3.16 µM; first compound 0.00316 µM; stronger effect = lower value

{"Molecule": "CC(C)n1nc(-c2ccc3oc(N)nc3c2)c2c(N)ncnc21 + C#Cc1c(F)ccc2cc(O)cc(-c3ncc4c(N5CC6CCC(C5)N6)nc(OCC56CCCN5CC(F)C6)nc4c3F)c12", "viability, T/C": "125%"}
{"Molecule": "C=CC(=O)Nc1cc(Nc2nccc(-c3cn(C)c4ccccc34)n2)c(OC)cc1N(C)CCN(C)C + C#Cc1c(F)ccc2cc(O)cc(-c3ncc4c(N5CC6CCC(C5)N6)nc(OCC56CCCN5CC(F)C6)nc4c3F)c12", "viability, T/C": "108%"}
{"Molecule": "O=C(c1ccc(F)c(F)c1Nc1ccc(I)cc1F)N1CC(O)([C@@H]2CCCCN2)C1 + C#Cc1c(F)ccc2cc(O)cc(-c3ncc4c(N5CC6CCC(C5)N6)nc(OCC56CCCN5CC(F)C6)nc4c3F)c12", "viability, T/C": "78.6%"}
{"Molecule": "CCN1CCN(Cc2ccc(Nc3ncc(F)c(-c4cc(F)c5nc(C)n(C(C)C)c5c4)n3)nc2)CC1 + C#Cc1c(F)ccc2cc(O)cc(-c3ncc4c(N5CC6CCC(C5)N6)nc(OCC56CCCN5CC(F)C6)nc4c3F)c12", "viability, T/C": "108%"}

Using the record for C=CC(=O)N1CCN(c2nc(OCC3CCCN3C)nc3c(F)c(-c4nc(N)cc(C)c4C(F)(F)F)c(Cl)cc23)C(C)C1 (stereo unspecified) + C#Cc1c(F)ccc2cc(O)cc(-c3ncc4c(N5CC6CCC(C5)N6)nc(OCC56CCCN5CC(F)C6)nc4c3F)c12 , state its measured viability, T/C.
96.9%

Using the record for Nc1ccn(C2OC(CO)C(O)C2(F)F)c(=O)n1 (stereo unspecified) + C#Cc1c(F)ccc2cc(O)cc(-c3ncc4c(N5CC6CCC(C5)N6)nc(OCC56CCCN5CC(F)C6)nc4c3F)c12 , state its measured viability, T/C.
97.4%

====

Tested on: 966289-007-R4-J1-PDC complex spheroid viability
Assay explanation: Anticancer human tumor 966289-007-R4-J1-PDC cell line growth inhibition [RAS];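 also: spheroids exposed to agents for one week before readout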
Applied conditions: curve of first compound; second compound 0.0949 µM
Listing of entries alongside the reported IC50.
Numeric answer only, unit nM assumed.

{"Compound": "CC(C)n1nc(-c2ccc3oc(N)nc3c2)c2c(N)ncnc21 + CCn1c(-c2cc(N3CCN(C)CC3)cnc2C(C)OC)c2c3cc(ccc31)-c1csc(n1)CC(NC(=O)C1CC1C)C(=O)N1CCCC(N1)C(=O)OCC(C)(C)C2", "Assay metric": "IC50", "Assay result": 26.1}

Moving on to the next compound.
Using the record for CC(C)NCC(C(=O)N1CCN(c2ncnc3c2C(C)CC3O)CC1)c1ccc(Cl)cc1 (centres undefined) + CCn1c(-c2cc(N3CCN(C)CC3)cnc2C(C)OC)c2c3cc(ccc31)-c1csc(n1)CC(NC(=O)C1CC1C)C(=O)N1CCCC(N1)C(=O)OCC(C)(C)C2 , state its measured IC50.
2990

====

System: 966289-007-R4-J1-PDC complex spheroid viability
Assay explanation: Anticancer human tumor 966289-007-R4-J1-PDC cell line growth inhibition [RAS];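 also: spheroids exposed to agents for one week before readout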
Applied conditions: curve of first compound; second compound 0.0949 µM
Assay metric: IC50

{"Molecule": "Nc1ccn(C2OC(CO)C(O)C2(F)F)c(=O)n1 (stereo not drawn) + CCn1c(-c2cc(N3CCN(C)CC3)cnc2C(C)OC)c2c3cc(ccc31)-c1csc(n1)CC(NC(=O)C1CC1C)C(=O)N1CCCC(N1)C(=O)OCC(C)(C)C2", "Subject of test": "966289-007-R4-J1-PDC complex spheroid viability", "IC50": "6.96 nM"}
{"Molecule": "NC1c2ccccc2OC12CCN(c1cnc3c(N4CCCc5ncccc54)n[nH]c3n1)CC2 (stereo not drawn) + CCn1c(-c2cc(N3CCN(C)CC3)cnc2C(C)OC)c2c3cc(ccc31)-c1csc(n1)CC(NC(=O)C1CC1C)C(=O)N1CCCC(N1)C(=O)OCC(C)(C)C2", "Subject of test": "966289-007-R4-J1-PDC complex spheroid viability", "IC50": "> 10000 nM"}

Moving on to the next molecule.
Using the record for CC(=O)OC12COC1CC(O)C1(C)C(=O)C(O)C3=C(C)C(OC(=O)C(O)C(NC(=O)OC(C)(C)C)c4ccccc4)CC(O)(C(OC(=O)c4ccccc4)C21)C3(C)C (stereo not drawn) + CCn1c(-c2cc(N3CCN(C)CC3)cnc2C(C)OC)c2c3cc(ccc31)-c1csc(n1)CC(NC(=O)C1CC1C)C(=O)N1CCCC(N1)C(=O)OCC(C)(C)C2 , state its measured IC50.
< 31.6 nM
